Tested on: S. aureus ATCC 29213
Assay type: cell-based
Peptide text beside a SMILES is read from it. * marks the point of attachment. Acetyl(1-adamantyl) = O=C(CC12CC3CC(CC(C3)C1)C2)*; Palmitoyl = CCCCCCCCCCCCCCCC(=O)*; Lauroyl = CCCCCCCCCCCC(=O)*; Octanoyl = CCCCCCCC(=O)*
recorded endpoint: MIC

Reference set, count: 5
CCCCCCCC(=O)N1CCC[C@H]1C(=O)N[C@@H](CCCNC(=N)N)C(=O)N1CCC[C@H]1C(=O)N[C@@H](CCCNC(=N)N)C(=O)N1CCC[C@H]1C(=O)N[C@@H](CCCNC(=N)N)C(=O)N1CCC[C@H]1C(N)=O [Compound C8-PRP, CH3(CH2)6CO-PRPRPRP-NH2] (Octanoyl-PRPRPRP-NH2)	>128 mg/L
CC(C)C[C@H](NC(=O)[C@@H]1CCCN1C(=O)[C@H](CCCNC(=N)N)NC(=O)[C@@H]1CCCN1C(=O)CC12CC3CC(CC(C3)C1)C2)C(=O)N1CCC[C@H]1C(=O)N[C@@H](CCCNC(=N)N)C(=O)N1CCC[C@H]1C(N)=O [Ad-PLP, Adamantyl-CH2CO-PRPLPRP-NH2] ({Acetyl(1-adamantyl)}-PRPLPRP-NH2)	>128 mg/L
CCCCCCCCCCCCCCCC(=O)N1CCC[C@H]1C(=O)N[C@@H](CCCNC(=N)N)C(=O)N1CCC[C@H]1C(=O)N[C@@H](CC(C)C)C(=O)N1CCC[C@H]1C(=O)N[C@@H](CCCNC(=N)N)C(=O)N1CCC[C@H]1C(N)=O [Compound C16-PLP, CH3(CH2)14CO-PRPLPRP-NH2] (Palmitoyl-PRPLPRP-NH2)	64 mg/L
N=C(N)NCCC[C@H](NC(=O)[C@@H]1CCCN1C(=O)[C@H](CCCNC(=N)N)NC(=O)[C@@H]1CCCN1C(=O)[C@H](CCCNC(=N)N)NC(=O)[C@@H]1CCCN1C(=O)CC12CC3CC(CC(C3)C1)C2)C(=O)N1CCC[C@H]1C(N)=O [Ad-PRP, Adamantyl-CH2CO-PRPRPRP-NH2] ({Acetyl(1-adamantyl)}-PRPRPRP-NH2)	>128 mg/L
CCCCCCCC(=O)N1CCC[C@H]1C(=O)N[C@@H](CCCNC(=N)N)C(=O)N1CCC[C@H]1C(=O)N[C@@H](CC(C)C)C(=O)N1CCC[C@H]1C(=O)N[C@@H](CCCNC(=N)N)C(=O)N1CCC[C@H]1C(N)=O [Compound C8-PLP, CH3(CH2)6CO-PRPLPRP-NH2] (Octanoyl-PRPLPRP-NH2)	>128 mg/L

Input: Entry CCCCCCCCCCCC(=O)N1CCC[C@H]1C(=O)N[C@@H](CCCNC(=N)N)C(=O)N1CCC[C@H]1C(=O)NCC(=O)N1CCC[C@H]1C(=O)N[C@@H](CCCNC(=N)N)C(=O)N1CCC[C@H]1C(N)=O [Compound C12-PGP, CH3(CH2)10CO-PRPGPRP-NH2] (Lauroyl-PRPGPRP-NH2) : reported MIC = ?
Output: >128 mg/L

Input: Then what about the compound CCCCCCCC(=O)N1CCC[C@H]1C(=O)N[C@@H](CCCNC(=N)N)C(=O)N1CCC[C@H]1C(=O)NCC(=O)N1CCC[C@H]1C(=O)N[C@@H](CCCNC(=N)N)C(=O)N1CCC[C@H]1C(N)=O [Compound C8-PGP, CH3(CH2)6CO-PRPGPRP-NH2] (Octanoyl-PRPGPRP-NH2) ?
Output: >128 mg/L

Data origin: patent US20200407398A1
